B1: Max-interacting protein 1, residues 70 to 120; numbered along this chain, P50539 (parent)
chain: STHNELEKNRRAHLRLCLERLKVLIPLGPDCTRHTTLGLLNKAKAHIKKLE

Variants of: B1
Procedure Text: abundance fitness (aPCA) (normalised: wild type 0, dead -1); higher = more abundant; growth selection in yeast, the domain comes from the species named
Run Parameters: Homo sapiens
Classification field: yes (1) = abundance fitness at or over -0.4; no (0) = abundance fitness under -0.4.

I25P ... yes (1)
R10T ... yes (1)
L24K ... yes (1)
E5M ... yes (1)
H46D ... no (0)
E51H ... yes (1)

Req: Kindly determine if abundance fitness recorded for V23A is above or exactly -0.4.
Resp: yes (1)
